Let's look at some variants and their measured protein stability index.
B1: SMOC2 (parent)
chain: PALETQPQGDEEDIASRYPTLWTE

# Variants of: B1
# Protocol Details: protein stability index of a GFP-peptide fusion (GPS, HEK-293T) (PSI 1-6); higher = more stable;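 note: lentivirally expressed fusions sorted by FACS into six bins by GFP to DsRed ratio, PSI derived from sequencing read proportions per bin multiplied by bin number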
# Conditions: c terminus: a fixed tail appended
Readout Kind: protein stability index

> print(dat)
    mutation.annotation  value.observed
 1                 E24K            5.17
 2                  L3Y            4.81
 3                  Q8K             3.9
 4                 I14W            3.97
 5                 E11F            3.95
 6                  Q8P            4.33
 7                  P1N            4.08
 8                 E24M            3.94
 9                  Q6G            5.04
10                  Q8G             3.6
11                  Q8A            4.88
12                 E12H            3.74
13                 S16C            4.63
14                 E12Y            3.75
15                 R17V            4.36
16                 Y18I            4.18
17                 P19F            4.87
18                  Q8T            4.86
19                  A2M             4.6
20                 E12S            4.46
21                 T23N            5.66
22                  L3R            4.44
23                 D13T            4.23
24                  E4K            4.31
25                  T5V            3.77
26                 R17W             4.2
27                  E4Y            2.74
28                  G9W            4.62
29                  E4R            3.77
30                  Q6K            4.26
31                  P7S            4.68
32                  G9I            4.08
33                 D10W            3.98
34                 S16Y            4.31
35                  A2N            5.04
36                 E12G            2.63
37                 T20E            4.41
38                  L3M            4.83
39                 T20H            4.87
40                 I14T            5.06
41                  P1T            4.58
42                 E12T            4.34
43                  T5D            5.12
44                 T20L            4.66
45                 T23Y            5.37
46                 D13W            4.68
47                 E24Y            4.41
48                  Q8N            5.23
49                 W22K             5.3
50                 D10E            4.16
51                  P7V            4.06
52                 D10S            4.44
53                 W22I            5.58
54                  G9L            4.84
55                 D13K            2.67
56                  E4N            4.31
57                 L21P            5.64
58                  T5K            3.88
59                 I14Y            4.39
60                 L21M            5.37
61                  P1S            4.78
62                  P1L               4
63                 Y18G            4.61
64                  E4F            3.64
65                  A2K            4.13
66                 R17P            4.53
67                 W22F            5.71
68                 S16Q            5.17
69                 E24F            4.17
70                 D10T            4.14
71                 E11M            3.59
72                  P7F            4.08
73                 Y18E            4.74
74                 P19G            4.87
75                  L3F            4.85
76                  P1A            4.26
77                 W22L            5.78
78                  P7K            3.38
79                 T23H            5.75
80                 A15L            4.76
81                  T5I            4.45
82                  P7N            4.48
83                 D13M            4.09

The reported numbers originate from the supplement of paper PMC10567573.
